# Assay Method Text: self-splicing fitness, log relative to wild type (ln ratio); higher = more splicing; Tetrahymena group I intron in knt gene, E. coli kanamycin selection, DiMSum; sequences stand for … in CUCUCU…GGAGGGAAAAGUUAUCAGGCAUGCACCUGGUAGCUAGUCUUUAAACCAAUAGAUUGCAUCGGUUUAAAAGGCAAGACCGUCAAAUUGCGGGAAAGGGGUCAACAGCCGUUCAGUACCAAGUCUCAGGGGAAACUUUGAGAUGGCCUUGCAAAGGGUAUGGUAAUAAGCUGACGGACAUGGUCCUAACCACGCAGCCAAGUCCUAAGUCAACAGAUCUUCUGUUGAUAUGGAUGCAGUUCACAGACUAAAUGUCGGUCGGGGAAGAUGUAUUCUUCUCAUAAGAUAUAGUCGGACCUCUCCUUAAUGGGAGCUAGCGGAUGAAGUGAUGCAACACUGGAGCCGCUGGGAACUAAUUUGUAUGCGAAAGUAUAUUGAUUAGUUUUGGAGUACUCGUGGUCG;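 also: selection with 25 µg/mL kanamycin versus none on LB agar overnight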
# Setup Conditions: 30 °C
# self-splicing fitness (ln) per record follows
Metric: self-splicing fitness (ln)

[[record]]
chain = "GACCAGCAAUAUUACGUAAC"
result_value = -0.981

[[record]]
chain = "UAGAAGCAAUAUUACGUCAG"
result_value = -0.574

[[record]]
chain = "ACUCAGCAAUAUUACGGGAC"
result_value = -2.72

[[record]]
chain = "AAUCAGCAAUAUUACGUCGC"
result_value = -2.06

[[record]]
chain = "GAGAAGCAAUAUUACGAUAU"
result_value = -2.18

[[record]]
chain = "GGCAAGCAAUAUUACGCUAG"
result_value = -3.39

[[record]]
chain = "UAAUAGCAAUAUUACGGUGA"
result_value = -3.61

[[record]]
chain = "UAAGAGCAAUAUUACGGCCU"
result_value = -1.36

[[record]]
chain = "AACUAGCAAUAUUACGCGUU"
result_value = -3.51

[[record]]
chain = "UCAUAGCAAUAUUACGCUAC"
result_value = -2.17

[[record]]
chain = "GCCGAGCAAUAUUACGCUUU"
result_value = -1.61

[[record]]
chain = "AUCCAGCAAUAUUACGUGUU"
result_value = -2.74

[[record]]
chain = "AUAAAGCAAUAUUACGGGAG"
result_value = -1.52

[[record]]
chain = "ACGGAGCAAUAUUACGCGAG"
result_value = -2.86

[[record]]
chain = "GUGCAGCAAUAUUACGUGGA"
result_value = -3.24

[[record]]
chain = "ACGAAGCAAUAUUACGGUUG"
result_value = -2.29


---

# Assay Method Text: self-splicing fitness, log relative to wild type (ln ratio); higher = more splicing; Tetrahymena group I intron in knt gene, E. coli kanamycin selection, DiMSum; sequences stand for … in CUCUCU…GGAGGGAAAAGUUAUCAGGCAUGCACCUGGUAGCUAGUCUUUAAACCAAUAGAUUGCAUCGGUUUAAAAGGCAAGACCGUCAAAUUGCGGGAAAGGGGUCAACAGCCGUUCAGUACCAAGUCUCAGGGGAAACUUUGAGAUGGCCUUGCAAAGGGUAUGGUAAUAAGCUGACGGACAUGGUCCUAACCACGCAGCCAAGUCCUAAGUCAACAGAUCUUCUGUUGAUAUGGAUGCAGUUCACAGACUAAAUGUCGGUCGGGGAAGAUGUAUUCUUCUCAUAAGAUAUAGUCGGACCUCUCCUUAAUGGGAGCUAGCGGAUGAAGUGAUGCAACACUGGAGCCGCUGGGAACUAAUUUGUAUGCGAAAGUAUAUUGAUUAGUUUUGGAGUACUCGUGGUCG
# Setup Conditions: 30 °C
Metric: self-splicing fitness (ln)

[[record]]
chain = "CAACAGCAAUAUUACGCCGC"
result_value = -4.57

[[record]]
chain = "CAUUAGCAAUAUUACGCGCG"
result_value = 0.0331

[[record]]
chain = "AAAAAGCAAUAUUACGGGUG"
result_value = -1.69

[[record]]
chain = "AGACAGCAAUAUUACGGUGU"
result_value = -3.34

[[record]]
chain = "GCACAGCAAUAUUACGGCGU"
result_value = -0.386

[[record]]
chain = "CAGGAGCAAUAUUACGCGUU"
result_value = -3.4

[[record]]
chain = "GUGCAGCAAUAUUACGAAUU"
result_value = -1.43

[[record]]
chain = "GGGAAGCAAUAUUACGGCUC"
result_value = -0.727

[[record]]
chain = "ACCUAGCAAUAUUACGUGAC"
result_value = -3.2

[[record]]
chain = "GCACAGCAAUAUUACGGGAA"
result_value = -1.47

[[record]]
chain = "UGAUAGCAAUAUUACGUAAA"
result_value = -3.07

[[record]]
chain = "CGACAGCAAUAUUACGCACA"
result_value = -0.429

[[record]]
chain = "CUCAAGCAAUAUUACGGGAA"
result_value = -2.51

[[record]]
chain = "UUGAAGCAAUAUUACGCGUG"
result_value = -0.176

[[record]]
chain = "CCACAGCAAUAUUACGCGGU"
result_value = -3.46

[[record]]
chain = "CGUGAGCAAUAUUACGUAUU"
result_value = -3.5

[[record]]
chain = "UCCUAGCAAUAUUACGUUCU"
result_value = -3.14

[[record]]
chain = "GACUAGCAAUAUUACGGCAC"
result_value = -0.648

[[record]]
chain = "GUUAAGCAAUAUUACGCGGG"
result_value = -2.2

[[record]]
chain = "GAGCAGCAAUAUUACGUGCA"
result_value = -1.15

[[record]]
chain = "GACAAGCAAUAUUACGGGGA"
result_value = -3.05

[[record]]
chain = "GACAAGCAAUAUUACGUUCC"
result_value = -3.15

[[record]]
chain = "AUAGAGCAAUAUUACGAUGU"
result_value = -0.266

[[record]]
chain = "CAUUAGCAAUAUUACGAGGG"
result_value = -3.1

[[record]]
chain = "GAAGAGCAAUAUUACGUAAC"
result_value = -1.31

[[record]]
chain = "UUCCAGCAAUAUUACGUAGC"
result_value = -3.54

[[record]]
chain = "UUGCAGCAAUAUUACGUACG"
result_value = -0.368

[[record]]
chain = "GCGCAGCAAUAUUACGUGGC"
result_value = -1.81

[[record]]
chain = "AGAAAGCAAUAUUACGAGAC"
result_value = -2.65

[[record]]
chain = "UUACAGCAAUAUUACGUCUG"
result_value = -1.59

[[record]]
chain = "CAAUAGCAAUAUUACGGUAA"
result_value = -2.8

[[record]]
chain = "UAACAGCAAUAUUACGGAAU"
result_value = -3.31

[[record]]
chain = "GUAGAGCAAUAUUACGGAUG"
result_value = -3.96

[[record]]
chain = "GGGUAGCAAUAUUACGUAGG"
result_value = -2.74

